percent inhibition of viability listing for selected compounds.
Tested on: normal NK cells expanded with K562-aAPC
Experiment: percent inhibition of viability; higher = more inhibition
Details: 72 h; IL-2 2.5 ng/mL; 1000 nM
Attribute Measured: percent inhibition of viability

> print(dat)
                                   compound                              system.name               attribute.measured  assay.value
1  Cc1cnc(Nc2ccc(OCCN3CCCC3)cc2)nc1Nc1cccc(S(=O)(=O)NC(C)(C)C)c1 [Fedratinib] (max concentration tested 10000 nM)  normal NK cells expanded with K562-aAPC  percent inhibition of viability        73.8%
2  Cn1cnc2c(F)c(Nc3ccc(Br)cc3F)c(C(=O)NOCCO)cc21 [Binimetinib] (max concentration tested 1000 nM)  normal NK cells expanded with K562-aAPC  percent inhibition of viability        16.2%
3  Oc1ccc2c(c1)CC[C@H](c1ccccc1)[C@@H]2c1ccc(OCCN2CCCC2)cc1 [Lasofoxifene] (max concentration tested 1000 nM)  normal NK cells expanded with K562-aAPC  percent inhibition of viability        14.2%
4  Nc1ncn([C@@H]2O[C@H](CO)[C@@H](O)[C@H]2O)c(=O)n1 [Azacitidine] (max concentration tested 10000 nM)  normal NK cells expanded with K562-aAPC  percent inhibition of viability        4.72%
5  O=C(c1ccc(OCCN2CCCCC2)cc1)c1c(-c2ccc(O)cc2)sc2cc(O)ccc12 [Raloxifene] (max concentration tested 10000 nM)  normal NK cells expanded with K562-aAPC  percent inhibition of viability        10.2%
6  O=C(O)C1(C(=O)O)CCC1.[NH2-].[NH2-].[Pt+2] [Carboplatin] (max concentration tested 100000 nM)  normal NK cells expanded with K562-aAPC  percent inhibition of viability        0.62%

----------
System: NKL (IL-2 2.5 ng/mL)
Experiment: drug sensitivity score (DSS) (DSS units); higher = more sensitive; extreme values may be limits of the assay
Details: 72 h
drug sensitivity score listing for selected molecules.

Molecule	drug sensitivity score
C[C@]1(c2nc3c(C(N)=O)cccc3[nH]2)CCCN1 [Veliparib] (max concentration tested 10000 nM)	2.57
CO[C@H]1C[C@@H]2CC[C@@H](C)[C@@](O)(O2)C(=O)C(=O)N2CCCC[C@H]2C(=O)O[C@H]([C@H](C)C[C@@H]2CC[C@@H](OP(C)(C)=O)[C@H](OC)C2)CC(=O)[C@H](C)/C=C(\C)[C@@H](O)[C@@H](OC)C(=O)[C@H](C)C[C@H](C)/C=C/C=C/C=C/1C [Ridaforolimus] (max concentration tested 100 nM)	19.2
Cc1ccc(-c2cc(C(F)(F)F)nn2-c2ccc(S(N)(=O)=O)cc2)cc1 [Celecoxib] (max concentration tested 10000 nM)	0
CC[C@@H]1C(=O)N(C)c2cnc(Nc3ccc(C(=O)NC4CCN(C)CC4)cc3OC)nc2N1C1CCCC1 [BI 2536] (max concentration tested 1000 nM)	16.6
COc1cc2c(Oc3ccc4[nH]c(C)cc4c3F)ncnc2cc1OCCCN1CCCC1 [Cediranib] (max concentration tested 1000 nM)	0
CC(C)(C)c1cnc(CSc2cnc(NC(=O)C3CCNCC3)s2)o1 [SNS-032] (max concentration tested 10000 nM)	32.3
Cc1ccc(F)c(NC(=O)Nc2ccc(-c3cccc4[nH]nc(N)c34)cc2)c1 [Linifanib] (max concentration tested 1000 nM)	1.69
Cc1cnc(Nc2ccc(OCCN3CCCC3)cc2)nc1Nc1cccc(S(=O)(=O)NC(C)(C)C)c1 (max concentration tested 10000 nM)	22.6
CCn1cc(-c2ccnc3[nH]c(-c4cccc(CN(C)C)c4)cc23)c(-c2ccc(NC(=O)N(C)C)cc2)n1 (max concentration tested 1000 nM)	3.99
COc1cc2nccc(Oc3ccc(NC(=O)Nc4cc(C)on4)c(Cl)c3)c2cc1OC [Tivozanib] (max concentration tested 10000 nM)	3.83
C[C@@H]1CCN(C(=O)CC#N)C[C@@H]1N(C)c1ncnc2[nH]ccc12 [Tofacitinib] (max concentration tested 5000 nM)	22.6

----------
Test system: DERL-7 (IL-2 2.5 ng/mL)
Test: drug sensitivity score (DSS) (DSS units); higher = more sensitive; extreme values may be limits of the assay
Conditions: 72 h

Compound	drug sensitivity score
COc1cccc2c1C(=O)c1c(O)c3c(c(O)c1C2=O)C[C@@](O)(C(=O)CO)C[C@@H]3O[C@H]1C[C@H](N)[C@H](O)[C@H](C)O1 [Doxorubicin] (max concentration tested 1000 nM)	17.4
Nc1nccc(-c2c(-c3ccc(F)cc3)ncn2C2CCCCC2)n1 (max concentration tested 10000 nM)	2.07
CC[C@@]1(O)C(=O)OCc2c1cc1n(c2=O)Cc2cc3ccccc3nc2-1 [Camptothecin] (max concentration tested 5000 nM)	33.3
Cn1cc(-c2cnn3c(N)c(Br)c([C@@H]4CCCNC4)nc23)cn1 [MK-8776] (max concentration tested 2500 nM)	4.16
Cc1ccc(NC(=O)c2ccc(CN3CCN(C)CC3)cc2)cc1Nc1nc(-c2cccnc2)cs1 [Masitinib] (max concentration tested 10000 nM)	7.97
C=C1C[C@@H]2[C@H](CC[C@]3(C)C(=O)CC[C@@H]23)[C@@]2(C)C=CC(=O)C=C12 [Exemestane] (max concentration tested 10000 nM)	2.16

----------
Tested on: NKL (IL-2 2.5 ng/mL)
Test: drug sensitivity score (DSS) (DSS units); higher = more sensitive; extreme values may be limits of the assay
Details: 72 h

Compound	drug sensitivity score
O=C1CN2Cc3c(ccc(Cl)c3Cl)N=C2N1 [Anagrelide] (max concentration tested 10000 nM)	0
Nc1ccccc1NC(=O)c1ccc(CNC(=O)OCc2cccnc2)cc1 [Entinostat] (max concentration tested 10000 nM)	14.6
CNC(=O)c1cccc(-c2ccc3c(N4CCOC[C@@H]4C)nc(N4CCOC[C@@H]4C)nc3n2)c1 [AZD2014] (max concentration tested 10000 nM)	20.4
CC(C)[C@H]1C(=O)N[C@@H](CCCNC(=N)N)C(=O)NCC(=O)N[C@@H](CC(=O)O)C(=O)N[C@H](Cc2ccccc2)C(=O)N1C [Cilengitide] (max concentration tested 10000 nM)	0
CC[C@@]1(O)C(=O)OCc2c1cc1n(c2=O)Cc2cc3ccccc3nc2-1 [Camptothecin] (max concentration tested 5000 nM)	43.1
O=C(/C=C/c1cccc(S(=O)(=O)Nc2ccccc2)c1)NO [Belinostat] (max concentration tested 10000 nM)	20.9
COCC[n+]1c2c(n(Cc3cnccn3)c1C)C(=O)c1ccccc1C2=O [YM155] (max concentration tested 10000 nM)	42.9
CC[C@H](NC(=O)[C@H](C)NC)C(=O)N1C[C@@H](O)C[C@H]1Cc1c(-c2[nH]c3cc(F)ccc3c2C[C@@H]2C[C@H](O)CN2C(=O)[C@H](CC)NC(=O)[C@H](C)NC)[nH]c2cc(F)ccc12 [Birinapant] (max concentration tested 1000 nM)	3.5
CCc1cncnc1N1CCN(Cc2nc3ccc(C(F)(F)F)cc3[nH]2)CC1 (max concentration tested 10000 nM)	5.1
Nc1nc(F)nc2c1ncn2[C@@H]1O[C@H](CO)[C@@H](O)[C@@H]1O [Fludarabine] (max concentration tested 10000 nM)	12.3
C=C1C[C@@H]2[C@H](CC[C@]3(C)C(=O)CC[C@@H]23)[C@@]2(C)C=CC(=O)C=C12 [Exemestane] (max concentration tested 10000 nM)	0.48
CCC(C)n1ncn(-c2ccc(N3CCN(c4ccc(OCC5COC(Cn6cncn6)(c6ccc(Cl)cc6Cl)O5)cc4)CC3)cc2)c1=O (configuration not stated) [Itraconazole] (max concentration tested 5000 nM)	4.25

----------
Test system: normal primary NK cells, pool 3 (3 donors) (IL-2 2.5 ng/mL);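 note: normalised to DMSO-only wells as negative and benzethonium chloride as positive control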
Assay: percent inhibition of viability; higher = more inhibition
Settings: 72 h; 1000 nM
Attribute Measured: percent inhibition of viability (%)

> print(dat)
                                   molecule               attribute.measured  assay.value
1  O=C(Nc1cccc(Nc2ncc(Br)c(NCCc3cnc[nH]3)n2)c1)N1CCCC1 [BX-912] (max concentration tested 10000 nM)  percent inhibition of viability         17.4
2  Nc1nc(F)nc2c1ncn2[C@@H]1O[C@H](CO)[C@@H](O)[C@@H]1O [Fludarabine] (max concentration tested 10000 nM)  percent inhibition of viability         29.6
3  COc1cc(N2CCC(N3CCN(C)CC3)CC2)ccc1Nc1ncnc(Nc2ccccc2S(=O)(=O)C(C)C)n1 [ASP3026] (max concentration tested 10000 nM)  percent inhibition of viability         2.81
4  CN1CCN(c2ccc3nc(-c4c(N)c5c(F)cccc5[nH]c4=O)[nH]c3c2)CC1 [Dovitinib] (max concentration tested 10000 nM)  percent inhibition of viability        -3.69
5  C[C@]1(O)C[C@@H](c2nc(-c3ccc4ccc(-c5ccccc5)nc4c3)c3c(N)nccn32)C1 [Linsitinib] (max concentration tested 10000 nM)  percent inhibition of viability        -1.16
